Molecular target: T1, sIL-6R (soluble IL-6 receptor; SBH Sciences) (human, UniProt P08887 20-365)
T1 construct: also called human IL-6R
T1 sequence: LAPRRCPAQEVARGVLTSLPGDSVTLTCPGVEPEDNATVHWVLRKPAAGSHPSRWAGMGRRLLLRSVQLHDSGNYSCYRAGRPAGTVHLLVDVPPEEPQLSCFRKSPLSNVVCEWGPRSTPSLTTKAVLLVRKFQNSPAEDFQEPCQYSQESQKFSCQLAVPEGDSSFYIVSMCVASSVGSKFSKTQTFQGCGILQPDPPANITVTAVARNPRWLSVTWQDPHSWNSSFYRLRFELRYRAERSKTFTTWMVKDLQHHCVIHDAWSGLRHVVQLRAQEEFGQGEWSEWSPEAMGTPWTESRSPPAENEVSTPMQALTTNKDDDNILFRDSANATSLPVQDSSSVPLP
Assay: SPR (BIAcore 3000), antibody on chip, sIL-6R analyte, 25 C
binders and their reported Kd
Field: numeric (nM). Do not append units.

The reported Kd of the binder 215# (antibody, human IgG1, kappa, V domains shown) VH: QVQLQESGPGLVRPSQTLSLTCTVSGYSITSDHAWSWVRQPPGRGLEWIGYISYSGMITYNPSLKSRVTMLRDTSKNQFSLRLSSVTAADTAVYYCARSLARMTAMDYWGQGSLVTVSS VL: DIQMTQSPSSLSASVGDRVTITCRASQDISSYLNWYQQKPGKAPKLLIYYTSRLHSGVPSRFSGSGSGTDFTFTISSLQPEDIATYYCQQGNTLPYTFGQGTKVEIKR was 1.03

Kd reading for 245# (antibody, human IgG1, kappa, V domains shown) VH: QVQLQESGPGLVRPSQTLSLTCTVSGYSITSDHAWSWVRQPPGRGLEWIGYISYSGMITYNPSLKSRVTMLRDTSKNQFSLRLSSVTAADTAVYYCARTLARMTAMDYWGQGSLVTVSS VL: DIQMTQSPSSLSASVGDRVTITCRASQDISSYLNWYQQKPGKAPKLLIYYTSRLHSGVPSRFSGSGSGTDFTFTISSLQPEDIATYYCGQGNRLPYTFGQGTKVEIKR : 0.25

// moving on: another record for Kd
Looking up 216# (antibody, human IgG1, kappa, V domains shown, also called Sample # 216) VH: QVQLQESGPGLVRPSQTLSLTCTVSGYSITSDHAWSWVRQPPGRGLEWIGYISYSGMITYNPSLKSRVTMLRDTSKNQFSLRLSSVTAADTAVYYCARSLARTTAIDFWGQGSLVTVSS VL: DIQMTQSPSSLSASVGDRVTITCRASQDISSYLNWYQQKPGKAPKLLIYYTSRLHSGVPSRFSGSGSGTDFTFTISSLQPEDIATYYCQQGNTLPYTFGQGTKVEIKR , I found its Kd recorded as 1.83

These measurements were taken from patent US20190315854A1.
